System: A2780
Experiment: Cytotoxicity against human A2780 cells assessed as cell viability after 96 hrs by SRB assay
Format: functional, cell-based
Protocol Conditions: A2780, 96 h
Overview of recorded IC50 for various compounds

>  <Compound>
C=C(C)[C@@H]1CC[C@]2(C(=O)OC)CC[C@]3(C)[C@H](CC[C@@H]4[C@@]5(C)CC[C@H](O)C(C)(C)[C@@H]5CC[C@]43C)[C@@H]12 [METHYL BETULINATE]

>  <IC50 [µM]>
16.3

$$$$
>  <Compound>
CC(=O)[C@@H]1CC[C@]2(C(=O)O)CC[C@]3(C)[C@H](CC[C@@H]4[C@@]5(C)CC/C(=N\Nc6ccc([N+](=O)[O-])cc6[N+](=O)[O-])C(C)(C)[C@@H]5CC[C@]43C)[C@@H]12

>  <IC50 [µM]>
9.1

$$$$
>  <Compound>
C=C(C)[C@@H]1CC[C@]2(C(=O)O)CC[C@]3(C)[C@H](CC[C@@H]4[C@@]5(C)CC[C@H](O)C(C)(C)[C@@H]5CC[C@]43C)[C@@H]12 [BETULINIC ACID]

>  <IC50 [µM]>
8.75

$$$$
>  <Compound>
C=C(C)[C@@H]1CC[C@]2(C(=O)OCc3ccccc3)CC[C@]3(C)[C@H](CC[C@@H]4[C@@]5(C)CC/C(=N\Nc6ccc([N+](=O)[O-])cc6[N+](=O)[O-])C(C)(C)[C@@H]5CC[C@]43C)[C@@H]12

>  <IC50 [µM]>
66.7

$$$$
>  <Compound>
C=C(C)[C@@H]1CC[C@]2(C(=O)O)CC[C@]3(C)[C@H](CC[C@@H]4[C@@]5(C)CCC(=O)C(C)(C)[C@@H]5CC[C@]43C)[C@@H]12 [BETUNOLIC ACID]

>  <IC50 [µM]>
5.97

$$$$
>  <Compound>
CC(=O)[C@@H]1CC[C@]2(C(=O)O)CC[C@]3(C)[C@H](CC[C@@H]4[C@@]5(C)CCC(=O)C(C)(C)[C@@H]5CC[C@]43C)[C@@H]12

>  <IC50 [µM]>
16.1

$$$$
>  <Compound>
C/C(=N\Nc1ccc([N+](=O)[O-])cc1[N+](=O)[O-])[C@@H]1CC[C@]2(C(=O)O)CC[C@]3(C)[C@H](CC[C@@H]4[C@@]5(C)CC[C@H](O)C(C)(C)[C@@H]5CC[C@]43C)[C@@H]12

>  <IC50 [µM]>
11.3

$$$$
